- Tested on: SN12C renal
- Experimental Protocol: NCI tumour cell line growth inhibition, 48 h; in the data active = GI50 below about 0.43 µM; inactive = the rest
Response enum: YES for active, NO for inactive

Query: Could you please tell me the result logged for COc1cc(CCC[P+](c2ccccc2)(c2ccccc2)c2ccccc2)c(OC)c2c1OCO2 in this assay?
Result: NO

Query: Could you please tell me the result logged for FC1(F)ON2CCc3ccccc3C2[C@H]1c1ccccc1 (stereo partly drawn) in this assay?
Result: NO

Query: Could you please tell me the result logged for CCOC(=O)c1[nH]c2cc(Cl)ccc2c1[C@@H](C(=O)NC(C)(C)C)N(CC)C(=O)CCCCC#Cc1cccc2c1CN(C1CCC(=O)NC1=O)C2=O (stereo partly drawn) in this assay?
Result: YES

Query: Could you please tell me the result logged for CC1=C([Te]c2ccccc2)C(=O)c2ccccc2C1=O in this assay?
Result: YES

Query: Could you please tell me the result logged for CCOC(=O)C(=Cc1ccc(C#N)cc1)C(=O)OCC in this assay?
Result: NO

Query: Could you please tell me the result logged for CC1(C)N=C(N)N=C(N)N1c1ccc(CNC(=O)Nc2ccc(S(=O)(=O)F)c(Cl)c2)c(Cl)c1 in this assay?
Result: NO

Query: Could you please tell me the result logged for CCN(CC)CCN(CC)CC.CCN(CC)CCN(CC)CC.[Cu+2].[Cu+2].[O-][Cl+3]([O-])([O-])[O-].[OH3+].[OH3+] in this assay?
Result: NO

Query: Could you please tell me the result logged for COC[C@H](NC(=O)c1cnc(C)s1)C(=O)N[C@@H](COC)C(=O)N[C@@H](Cc1ccccc1)C(=O)[C@@]1(C)CO1 in this assay?
Result: NO

Query: Could you please tell me the result logged for CCN1CCN(CCNc2nccc(-c3c(-c4ccc(F)c(O)c4)nc4occn34)n2)S1(=O)=O in this assay?
Result: NO

Query: Could you please tell me the result logged for COc1cc(-n2ccnc2-c2ccc3ccccc3c2)cc(OC)c1OC in this assay?
Result: NO

Query: Could you please tell me the result logged for Cc1cc2c(F)c(Oc3ncnc(Nc4ccc(N5C[C@@H](C)N[C@@H](C)C5)cc4)c3C#N)cc(F)c2[nH]1 in this assay?
Result: NO

Query: Could you please tell me the result logged for C=C(C)[C@@H]1CC[C@]2(CO)CC[C@]3(C)[C@H](CC[C@@H]4[C@@]5(C)CCCNC(C)(C)[C@@H]5CC[C@]43C)[C@@H]12 in this assay?
Result: NO

Query: Could you please tell me the result logged for Fc1cccc(COc2ccc(Nc3ncnc4onc(-c5ccccc5)c34)cc2)c1 in this assay?
Result: YES

----------
- Test system: MOLT-4 leukemia
- Experimental Protocol: NCI tumour cell line growth inhibition, 48 h
Assay Endpoint: GI50

Query: Please give the documented GI50 of COc1ccc2cc(-c3cnc4nonc4n3)ccc2c1
Result: 1920 nM

Query: Please give the documented GI50 of O=S(=O)(N=C1C(Cl)=C(Cl)C(=NS(=O)(=O)c2ccccc2)C(Cl)=C1Cl)c1ccccc1
Result: 27000 nM

Query: Please give the documented GI50 of COc1cc(-c2nn(-c3cccc(NC(=O)Nc4ccc(Cl)c(C(F)(F)F)c4)c3)cc2-c2ccncc2)ccc1Cl
Result: 1020 nM

Query: Please give the documented GI50 of CC1=C([Te]c2ccccc2)C(=O)c2ccccc2C1=O
Result: 287 nM

Query: Please give the documented GI50 of C=C(C)[C@@H]1CC[C@]2(CO)CC[C@]3(C)[C@H](CC[C@@H]4[C@@]5(C)CCCNC(C)(C)[C@@H]5CC[C@]43C)[C@@H]12
Result: 1790 nM

Query: Please give the documented GI50 of COc1ccc2c(c1)CCC1C2CC[C@@]2(C)C1CC[C@@H]2NC(=O)Cc1ccc(O)c(O)c1 (some centres undefined)
Result: 2760 nM

Query: Please give the documented GI50 of COc1ccc(Nc2nc(NCCNc3ccnc4cc(Cl)ccc34)nc(N3CCOCC3)n2)cc1
Result: 2010 nM

Query: Please give the documented GI50 of Fc1cccc(COc2ccc(Nc3ncnc4onc(-c5ccccc5)c34)cc2)c1
Result: 270 nM

Query: Please give the documented GI50 of O=C(O)Cc1cccc2c(=O)cc(-c3ccccc3)oc12
Result: 288000 nM

----------
- Test system: OVCAR-8 ovarian
- Experimental Protocol: NCI tumour cell line growth inhibition, 48 h
Where a SMILES comes first, the peptide text is derived from it. [ ]: non-standard residue; d: D form. pGlu = O=C1CC[CH](C(=O)O)N1; Thz = O=C(O)[CH]1CSCN1
Answer each item with its documented TGI.

Query: Recall the reported TGI of CC(C)(C)C1=CC(=N/N=c2\scc(-c3ccccc3)n2-c2ccccc2)C=C(C(C)(C)C)C1=O when tested on OVCAR-8 ovarian.
Result: > 100 µM

Query: Recall the reported TGI of CC1OC(OC2C(O)COC(OC3C(C)OC(OC4C(OC(=O)[C@]56CCC(C)(C)C[C@@H]5C5=CCC7[C@@]8(C)C[C@H](O)[C@H](OC9OC(CO)C(O)C(O)C9O)[C@@](C)(CO)[C@@H]8CC[C@@]7(C)[C@]5(C)CC6)OCC(O)C4O)C(O)C3O)C2O)C(O)C(O)C1O (stereo not given in full) when tested on OVCAR-8 ovarian.
Result: 43.4 µM

Query: Recall the reported TGI of CN(C)c1ccc(/C=N/NC(N)=S)nc1 when tested on OVCAR-8 ovarian.
Result: > 100 µM

Query: Recall the reported TGI of COC(=O)C(Cc1c[nH]c2ccccc12)NC(=O)C(Cc1cnc[nH]1)NC(=O)C1CCC(=O)N1C(=O)OCc1ccccc1 (stereo not given) when tested on OVCAR-8 ovarian.
Result: > 100 µM

Query: Recall the reported TGI of O=C(O)c1nc2cc(Cl)ccc2[nH]c1=O when tested on OVCAR-8 ovarian.
Result: > 100 µM

Query: Recall the reported TGI of Cc1nc2c(c(N3CCN(C)CC3)n1)Cc1ccccc1-2 when tested on OVCAR-8 ovarian.
Result: > 100 µM

Query: Recall the reported TGI of CCCn1cc2c(=O)[nH]c(SC)nc2n1 when tested on OVCAR-8 ovarian.
Result: > 100 µM

Query: Recall the reported TGI of CC1SC(c2ccccc2Cl)N(NC(=O)C(O)c2ccccc2)C1=O (stereo not given) when tested on OVCAR-8 ovarian.
Result: > 100 µM

Query: Recall the reported TGI of CN(O)C(=O)CCC(NC(=O)CCC(N)C(=O)O)C(=O)NCC(=O)O (stereo not given) when tested on OVCAR-8 ovarian.
Result: > 100 µM

Query: Recall the reported TGI of COc1c2c(c3c(c1OC)c(=O)c1ccccc1n3C)OCO2 when tested on OVCAR-8 ovarian.
Result: > 100 µM

Query: Recall the reported TGI of O=c1cc(-c2ccc(F)cc2)[nH]c2ncccc12 when tested on OVCAR-8 ovarian.
Result: > 100 µM

Query: Recall the reported TGI of CO/C=C(/C(=O)OC)[C@@H]1C[C@@H]1c1ccc2ccccc2c1 when tested on OVCAR-8 ovarian.
Result: > 100 µM

Query: Recall the reported TGI of COC1OC2COC1(OCc1ccccc1)C1OC(C)(C)OC21 (stereo not given) when tested on OVCAR-8 ovarian.
Result: > 100 µM

Query: Recall the reported TGI of COc1ccccc1C#Cc1ccccc1C#Cc1ccc(OCCCCCCOc2ccccc2C#Cc2ccccc2C#Cc2ccccc2OC)cc1 when tested on OVCAR-8 ovarian.
Result: > 100 µM

Query: Recall the reported TGI of CCCCSC1=N/C(=C\c2ccccc2O)C(=O)N1 when tested on OVCAR-8 ovarian.
Result: > 100 µM

Query: Recall the reported TGI of O=S(=O)(N=C1C(Cl)=C(Cl)C(=NS(=O)(=O)c2ccccc2)C(Cl)=C1Cl)c1ccccc1 when tested on OVCAR-8 ovarian.
Result: 50.6 µM

Query: Recall the reported TGI of COc1cnc2c(c1)C(=O)c1c-2n(CCCN2CCCC2)c(=O)c2cc([N+](=O)[O-])ccc12 when tested on OVCAR-8 ovarian.
Result: 5.85 µM

Query: Recall the reported TGI of COC(=O)C1=CO[C@@H](C)[C@@H]2Cn3ccc4c5ccccc5nc-4c3C[C@H]12 when tested on OVCAR-8 ovarian.
Result: > 100 µM

Query: Recall the reported TGI of C#CC1(O)CCC2[C@@H]3CCc4cc(Oc5nc(F)nc(-c6c(C)c(C(=O)OCC)n7ccccc67)n5)ccc4C3CC[C@@]21C (stereo not given in full) when tested on OVCAR-8 ovarian.
Result: > 100 µM

Query: Recall the reported TGI of O=C1c2c(c(=O)[nH]c3ccccc23)[C@H](c2ccccc2)[C@@H]2CCCN12 when tested on OVCAR-8 ovarian.
Result: > 100 µM

Query: Recall the reported TGI of Fc1cc(C2=Nn3c(COc4ccccc4Cl)nnc3S/C2=C\c2ccc(Cl)cc2)c(Cl)cc1Cl when tested on OVCAR-8 ovarian.
Result: > 100 µM

Query: Recall the reported TGI of Cc1ccc2nc3ccccc3c(C3C4C(=O)N(c5ccc(F)cc5)C(=O)C4ON3C(C(N)=O)c3ccccc3)c2c1 (stereo not given) when tested on OVCAR-8 ovarian.
Result: > 100 µM

Query: Recall the reported TGI of O=C(Cc1ccc2ccccc2c1)NCc1ccc(C(=O)NCCc2ccccc2)cc1 when tested on OVCAR-8 ovarian.
Result: > 100 µM

Query: Recall the reported TGI of CSc1cc([C@@H]2C[C@H]2c2ccc(Cl)cc2)on1 when tested on OVCAR-8 ovarian.
Result: 46.1 µM

Query: Recall the reported TGI of CC(C)(C)c1cc(/C=C(\C#N)C2=NCCO2)cc(C(C)(C)C)c1O when tested on OVCAR-8 ovarian.
Result: 19.6 µM

Query: Recall the reported TGI of CC(=O)OC12C(C)=C(C)C(=O)N1c1ccccc1N2C(C)=O (stereo not given) when tested on OVCAR-8 ovarian.
Result: > 100 µM

Query: Recall the reported TGI of O=C1CCC(C(=O)N2CSCC2C(=O)O)N1 (stereo not given) ([pGlu]-[Thz]-OH; configuration not given here) when tested on OVCAR-8 ovarian.
Result: > 100 µM

Query: Recall the reported TGI of COC(=O)C1CCC(=O)N1C(c1ccc(OC)cc1)c1cc(OC)c(OC)c(OC)c1 (stereo not given) when tested on OVCAR-8 ovarian.
Result: > 100 µM

Query: Recall the reported TGI of COc1ccc2c(c1)CCC1C2CC[C@@]2(C)C1CC[C@@H]2NC(=O)Cc1ccc(O)c(O)c1 (stereo not given in full) when tested on OVCAR-8 ovarian.
Result: 30.8 µM

Query: Recall the reported TGI of C=C(C)[C@@H]1CC[C@]2(CO)CC[C@]3(C)[C@H](CC[C@@H]4[C@@]5(C)CCCNC(C)(C)[C@@H]5CC[C@]43C)[C@@H]12 when tested on OVCAR-8 ovarian.
Result: 3.51 µM

Query: Recall the reported TGI of O=c1onc2n1-c1ccc(Cl)cc1C(=S)N1CSCC21 (stereo not given) when tested on OVCAR-8 ovarian.
Result: 39.8 µM

Query: Recall the reported TGI of Cn1c(-c2ccco2)ccc1-c1ccc(C=O)o1 when tested on OVCAR-8 ovarian.
Result: > 100 µM

Query: Recall the reported TGI of CC1C(C)(C)C23CC12C1(OCCO1)C3Br (stereo not given) when tested on OVCAR-8 ovarian.
Result: > 100 µM

Query: Recall the reported TGI of O=C1CCCCCCC2=C1C(Sc1ccccc1)CC2 (stereo not given) when tested on OVCAR-8 ovarian.
Result: 54 µM

Query: Recall the reported TGI of COC(=O)CCC(=O)Nc1ccc(Cl)cc1C when tested on OVCAR-8 ovarian.
Result: > 100 µM

Query: Recall the reported TGI of CC(NC1=NCCO1)c1ccccc1Cl (stereo not given) when tested on OVCAR-8 ovarian.
Result: > 100 µM

Query: Recall the reported TGI of Cc1ccc2c(c1)nc1n2C(c2c(F)cccc2F)SC1 (stereo not given) when tested on OVCAR-8 ovarian.
Result: > 100 µM

Query: Recall the reported TGI of Fc1cccc(COc2ccc(Nc3ncnc4onc(-c5ccccc5)c34)cc2)c1 when tested on OVCAR-8 ovarian.
Result: > 100 µM

Query: Recall the reported TGI of O=C(OC1=CCN(Br)C1=O)C1=C(O)C(=O)N(Br)C1 when tested on OVCAR-8 ovarian.
Result: > 100 µM

Query: Recall the reported TGI of CCC[CH2][Sn](=[O])[CH2]CCC when tested on OVCAR-8 ovarian.
Result: > 50 µM
